Measured values drawn from paper PMC9482650 for this set.

Target: NHERF2_2, Q15599
Sequence (Q15599 142-238): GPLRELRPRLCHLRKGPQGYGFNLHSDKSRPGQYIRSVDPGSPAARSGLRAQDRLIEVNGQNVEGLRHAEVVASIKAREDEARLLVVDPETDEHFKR
Experiment: holdup assay
Parameters: key: below the threshold = too weak to quantify, mostly under pKd 3.1 to 4
Settings: plain residues with an end cap or a label only (N-terminal biotin on a linker: ado-ado)
readoutKind: pKd

> print(dat)
                                     binder        observedvalue
1              SVTSERETNI [SLC16A7, O60669]  below the threshold
2                AEASVACSLC [PTGIR, P43119]  below the threshold
3               TISFTQTSQF [SLC1A1, P43005]                 4.42
4  KRPEMTSSSV [MUC3A, MUC3B, Q02505;Q9H195]  below the threshold
5                 DRIQSCLSDA [SBF1, O95248]  below the threshold
6              EDPRVEVTQF [SLC22A9, Q8IVM8]                 4.61
7              ARGPPRESEV [FAM110D, Q8TAY7]  below the threshold
8                PPGKHLVTEV [KCNA7, Q96RP8]  below the threshold

pKd reading for TRKRSGEAAV [PFKM, P08237] : below the threshold
